molecular target: recombinant human CYP3A4 enzyme (Homo sapiens); experiment: CYP3A4-Glo Screening System luminescent CYP3A4 inhibition assay
Sequence (P08684 whole entry): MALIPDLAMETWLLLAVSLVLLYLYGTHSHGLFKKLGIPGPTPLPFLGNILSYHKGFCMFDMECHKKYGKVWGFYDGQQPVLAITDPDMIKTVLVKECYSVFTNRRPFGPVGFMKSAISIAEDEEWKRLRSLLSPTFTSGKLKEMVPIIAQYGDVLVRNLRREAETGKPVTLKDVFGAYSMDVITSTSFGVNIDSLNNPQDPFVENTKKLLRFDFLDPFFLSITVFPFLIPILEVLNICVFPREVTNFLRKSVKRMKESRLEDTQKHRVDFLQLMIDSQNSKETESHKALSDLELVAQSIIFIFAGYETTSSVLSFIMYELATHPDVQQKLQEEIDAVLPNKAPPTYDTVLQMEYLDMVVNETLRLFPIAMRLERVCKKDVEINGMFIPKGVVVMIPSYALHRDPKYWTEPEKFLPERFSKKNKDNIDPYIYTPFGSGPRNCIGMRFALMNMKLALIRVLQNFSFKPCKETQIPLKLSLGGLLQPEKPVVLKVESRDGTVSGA
Reported pIC50 values are given for each entry in this list.
# reply with the number alone; pIC50 is -log10 of concentration in mol/L

// known answers, use as guide
O=C(/C=C/c1ccc(O)cc1)CC(=O)/C=C/c1ccc(O)cc1
4.83
CC(C)=CCOc1c2ccoc2cc2oc(=O)ccc12
4.74
COc1cc(/C=C/c2ccc(O)cc2)cc(OC)c1
5.95

With those in mind, consider the next molecule.
Query Cc1c2ccncc2c(C)c2c1[nH]c1ccccc12 yields pIC50 of 7.28
